Target: T1, Mouse MuSK as it stands on mouse muscle (neuromuscular junctions, C2C12 myotubes) (mouse, UniProt Q61006 22-868)
T1 sequence (looked up): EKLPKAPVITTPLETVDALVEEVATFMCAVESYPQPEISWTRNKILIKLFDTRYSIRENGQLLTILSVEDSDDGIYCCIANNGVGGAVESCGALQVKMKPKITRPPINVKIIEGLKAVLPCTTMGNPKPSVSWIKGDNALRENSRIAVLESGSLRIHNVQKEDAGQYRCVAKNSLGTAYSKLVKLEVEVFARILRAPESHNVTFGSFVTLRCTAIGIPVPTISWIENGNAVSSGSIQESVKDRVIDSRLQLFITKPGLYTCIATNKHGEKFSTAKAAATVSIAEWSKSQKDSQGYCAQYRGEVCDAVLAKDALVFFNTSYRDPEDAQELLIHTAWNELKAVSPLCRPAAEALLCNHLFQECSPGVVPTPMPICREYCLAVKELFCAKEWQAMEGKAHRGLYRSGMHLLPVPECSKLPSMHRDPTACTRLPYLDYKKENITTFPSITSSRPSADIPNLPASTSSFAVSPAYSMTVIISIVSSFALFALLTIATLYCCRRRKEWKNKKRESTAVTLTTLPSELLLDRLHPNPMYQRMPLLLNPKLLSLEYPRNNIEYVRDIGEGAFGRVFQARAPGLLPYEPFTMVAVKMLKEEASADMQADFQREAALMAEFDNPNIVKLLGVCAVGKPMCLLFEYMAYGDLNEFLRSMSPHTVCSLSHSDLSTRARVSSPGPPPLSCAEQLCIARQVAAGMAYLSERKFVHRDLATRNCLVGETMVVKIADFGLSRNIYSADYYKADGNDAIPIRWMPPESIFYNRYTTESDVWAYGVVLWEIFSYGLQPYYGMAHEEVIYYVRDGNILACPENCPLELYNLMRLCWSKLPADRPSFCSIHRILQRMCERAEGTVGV
Experiment: cell-based or functional assay
Measured AChR clusters larger or equal to 3 µm compared to agrin; Exp 1, batch Argenx values are reported for all entries that follow.

# count of solved cases: 3
1. 3D9b (antibody, human IgG1, kappa, L234A L235A, V domains shown) VH: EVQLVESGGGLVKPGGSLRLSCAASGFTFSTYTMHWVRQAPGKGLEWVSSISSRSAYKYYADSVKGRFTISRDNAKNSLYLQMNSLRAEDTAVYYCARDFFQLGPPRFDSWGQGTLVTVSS VL: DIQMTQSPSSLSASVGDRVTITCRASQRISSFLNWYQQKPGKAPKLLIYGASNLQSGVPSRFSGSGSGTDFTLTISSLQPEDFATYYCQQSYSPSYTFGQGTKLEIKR	89 % of agrin
2. 3D10a (antibody, human IgG1, kappa, L234A L235A, V domains shown) VH: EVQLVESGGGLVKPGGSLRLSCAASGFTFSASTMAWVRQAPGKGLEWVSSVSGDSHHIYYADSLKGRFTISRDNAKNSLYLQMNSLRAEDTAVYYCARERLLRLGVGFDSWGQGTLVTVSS VL: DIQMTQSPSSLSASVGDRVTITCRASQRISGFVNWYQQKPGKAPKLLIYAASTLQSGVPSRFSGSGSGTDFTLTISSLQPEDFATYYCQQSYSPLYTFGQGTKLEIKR	64 % of agrin
3. 3F6c (antibody, human IgG1, kappa, L234A L235A, V domains shown) VH: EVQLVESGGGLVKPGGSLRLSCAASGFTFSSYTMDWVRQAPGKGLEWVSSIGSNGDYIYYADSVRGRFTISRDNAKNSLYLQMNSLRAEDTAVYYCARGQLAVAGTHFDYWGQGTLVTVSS VL: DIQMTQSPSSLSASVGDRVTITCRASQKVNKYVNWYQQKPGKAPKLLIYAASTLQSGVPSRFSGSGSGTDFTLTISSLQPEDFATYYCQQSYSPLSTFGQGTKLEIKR	71 % of agrin

From here, focus on the item given below.
Q. Let me know recorded AChR clusters larger or equal to 3 µm compared to agrin; Exp 1, batch Argenx for 4D3 (antibody, human IgG1, kappa, L234A L235A, V domains shown) VH: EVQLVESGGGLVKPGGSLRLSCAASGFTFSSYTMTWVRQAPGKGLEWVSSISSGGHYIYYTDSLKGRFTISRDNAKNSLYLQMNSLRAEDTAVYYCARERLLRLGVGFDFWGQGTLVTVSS VL: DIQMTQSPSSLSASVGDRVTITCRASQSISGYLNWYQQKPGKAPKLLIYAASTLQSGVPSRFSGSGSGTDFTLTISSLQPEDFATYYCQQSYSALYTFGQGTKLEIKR , thanks.
A. 102 % of agrin
